Source: ChEMBL document CHEMBL1201862

- Test system: SK-OV-3
- RUN DESCRIPTION: NCI tumour cell line growth inhibition, 48 h
The source made the active and inactive calls. Cut-off read from the data, not from the text of the source: active = GI50 up to about 1.1 µM and inactive = higher.
The entries below are paired with their reported GI50.
READOUT TYPE: GI50

| COMPOUND | READOUT TYPE | MEASUREMENT |
| --- | --- | --- |
| CC(O)(c1ccc(OCCC[N+](C)(C)C)cc1)C(C)(O)c1ccc(OCCC[N+](C)(C)C)cc1 (centres undefined) | GI50 | > 100 µM (inactive) |
| O=[N+]([O-])C(/C=C(\Cl)[N+](=O)[O-])=C(Nc1ccccc1)Nc1ccccc1 | GI50 | 20.1 µM (inactive) |
| NNC(=O)C(=O)N/N=C(\CCC(=O)Nc1ccc(Cl)cc1)Cc1nc2ccccc2s1 | GI50 | 27.3 µM (inactive) |
| N#Cc1ccccc1NC(=O)C(=O)C(C(=O)c1ccccc1F)C1OC(=O)c2ccccc21 (centres undefined) | GI50 | 41.3 µM (inactive) |
| CCCCCCCCCCCCc1ccsc1-c1ccc(-c2ccc(-c3sccc3CCCCCCCCCCCC)s2)s1 | GI50 | > 100 µM (inactive) |
| O=C(c1ccc(Cl)cc1Cl)N(/N=C/C=C/c1ccccc1)c1nnc(-c2ccccc2)c(-c2ccccc2)n1 | GI50 | > 100 µM (inactive) |
| O=C(O)C(=Cc1ccc(-c2ccccc2)cc1)C(=O)O | GI50 | 12.6 µM (inactive) |
| C=CCC(C(=O)O)c1ccccc1 (centres undefined) | GI50 | > 100 µM (inactive) |
| O=C(O)C1CCC(=O)N1C(=O)COc1cc(Cl)c(Cl)cc1Cl (centres undefined) | GI50 | > 100 µM (inactive) |
| CC(=O)NNc1nc(C)c(C(=O)/C=C/c2ccccc2Cl)s1 | GI50 | > 100 µM (inactive) |
| Cc1cc2[nH]c3c(C#N)c(-c4ccccc4)c(CN4CCOCC4)c(=O)n3c2cc1C | GI50 | > 100 µM (inactive) |
| COc1cccc(Nc2nc(N)nc(N)c2N)c1 | GI50 | > 100 µM (inactive) |
| c1ccc(/C(=N/Nc2ccncn2)c2ccccn2)cc1 | GI50 | 23.7 µM (inactive) |
| N#Cc1[nH]c(=O)n(-c2ccc([N+](=O)[O-])cc2)c1N | GI50 | > 10 µM (inactive) |
| O=c1oc2ccc([N+](=O)[O-])cc2c(Nc2ccc3c(c2)Sc2ccccc2O3)c1[N+](=O)[O-] | GI50 | 24 µM (inactive) |
| CCN(CC)CCNc1ccc2nc(C)n3c4ccc(OC)cc4c(=O)c1c23 | GI50 | 5.48 µM (inactive) |
| Cc1sc2nc3n(c(=O)c2c1C)N=CN(c1ccc(Cl)cc1)C3 | GI50 | > 100 µM (inactive) |
| O=C(CCCN1CC=C(n2c(=O)[nH]c3ccccc32)CC1)c1cccs1 | GI50 | > 100 µM (inactive) |
| CCOC(=O)C(OP(=O)(OCC)OCC)C(F)(F)F (centres undefined) | GI50 | > 100 µM (inactive) |
| O=C1CC(C(CC(=O)c2ccccc2)c2ccccc2)C(=O)c2ccccc2N1 (centres undefined) | GI50 | > 100 µM (inactive) |
| O=C(CC1C(=O)Nc2ccccc2[S+]1[O-])Nc1ccc(Cl)cc1 (centres undefined) | GI50 | 30.1 µM (inactive) |
| COc1ccc(C2=NN(c3ccccc3)C(c3cc4cc(Br)ccc4nc3Cl)C2)cc1 (centres undefined) | GI50 | > 25 µM (inactive) |
| COCOc1c(C(OCOC)c2cnc(Sc3ccccc3)n2C)ccc(OC)c1OC (centres undefined) | GI50 | > 100 µM (inactive) |
| C=CCCCN(C(=O)c1ccccc1)c1ccc(C(=O)OC)o1 | GI50 | > 100 µM (inactive) |
